# Vd values compiled below
assay: Volume of distribution at steady state in Wistar Han rat at 1 mg/kg, iv infusion; assay type: ADME, organism-based; set-up: dose 1 mg/kg, route intravenous; conditions: in vivo, read-out: Vdss
readout label: Vd

- C[C@H]1[C@H](NC(=O)/C(=N\OC(C)(C)C(=O)O)c2csc(N)n2)C(=O)N1C(=O)NS(=O)(=O)n1nc(-c2cc(=O)c(O)c[nH]2)n(C[C@@H](O)CO)c1=O: 0.28 L/kg
- C[C@H]1[C@H](NC(=O)/C(=N\OC(C)(C)C(=O)O)c2csc(N)n2)C(=O)N1C(=O)NS(=O)(=O)N1CCN(C(=O)c2cc(=O)c(O)c[nH]2)N(C)C1=O: 0.42 L/kg
- C[C@H]1[C@H](NC(=O)/C(=N\OC(C)(C)C(=O)O)c2csc(N)n2)C(=O)N1C(=O)NS(=O)(=O)N1C[C@@H](NC(=O)NCc2cc(=O)c(O)cn2O)CC1=O: 0.29 L/kg
- C[C@H]1[C@H](NC(=O)/C(=N\OC(C)(C)C(=O)O)c2csc(N)n2)C(=O)N1C(=O)NS(=O)(=O)N1C[C@@H](NC(=O)c2cc(=O)c(O)c[nH]2)CC1=O: 0.44 L/kg

----------
# fraction unbound values compiled below
assay: Plasma protein binding in Wistar Han rat as percentage unbound
readout label: fraction unbound

• C[C@H]1[C@H](NC(=O)/C(=N\OC(C)(C)C(=O)O)c2csc(N)n2)C(=O)N1C(=O)NS(=O)(=O)N1C[C@@H](NC(=O)c2cc(=O)c(O)c[nH]2)CC1=O = 0.06
• C[C@H]1[C@H](NC(=O)/C(=N\OC(C)(C)C(=O)O)c2csc(N)n2)C(=O)N1C(=O)NS(=O)(=O)N1CCN(C(=O)c2cc(=O)c(O)c[nH]2)N(C)C1=O = 0.15
• C[C@H]1[C@H](NC(=O)/C(=N\OC(C)(C)C(=O)O)c2csc(N)n2)C(=O)N1C(=O)NS(=O)(=O)N1C[C@@H](NC(=O)NCc2cc(=O)c(O)cn2O)CC1=O = 0.29
• C[C@H]1[C@H](NC(=O)/C(=N\OC(C)(C)C(=O)O)c2csc(N)n2)C(=O)N1C(=O)NS(=O)(=O)n1nc(-c2cc(=O)c(O)c[nH]2)n(C[C@@H](O)CO)c1=O = 0.04

----------
assay: Percentage unbound in human plasma at 10 uM after 16 hrs by LC-MS/MS analysis
readout label: fraction unbound at 16 h, 10 µM

* C[C@H]1[C@H](NC(=O)/C(=N\OC(C)(C)C(=O)O)c2csc(N)n2)C(=O)N1C(=O)NS(=O)(=O)N1C[C@@H](NC(=O)c2cc(=O)c(O)cn2O)CC1=O | 0.08
* C[C@H]1[C@H](NC(=O)/C(=N\OC(C)(C)C(=O)O)c2csc(N)n2)C(=O)N1C(=O)NS(=O)(=O)N1C[C@@H](NC(=O)CNC(=O)c2cc(=O)c(O)c[nH]2)CC1=O | 0.38
* C[C@H]1[C@H](NC(=O)/C(=N\OC(C)(C)C(=O)O)c2csc(N)n2)C(=O)N1C(=O)NS(=O)(=O)NCc1cc(=O)c(O)c[nH]1 | 0.61

----------
# Kinact values compiled below
test system: Pseudomonas aeruginosa; assay: Inhibition of Pseudomonas aeruginosa PBP3 acylation activity by BOCILLIN FL-based assay
readout label: Kinact

- C[C@H]1[C@H](NC(=O)/C(=N\OC(C)(C)C(=O)O)c2csc(N)n2)C(=O)N1C(=O)NS(=O)(=O)N1C[C@@H](NC(=O)[C@H](CN)NC(=O)c2cc(=O)c(O)c[nH]2)CC1=O: 9.4 ×10³ /M/s
- C[C@H]1[C@H](NC(=O)/C(=N\OC(C)(C)C(=O)O)c2csc(N)n2)C(=O)N1C(=O)NS(=O)(=O)N1C[C@@H](N(C)C(=O)NCc2cc(=O)c(O)cn2O)CC1=O: 3.1 ×10⁴ /M/s
- C[C@H]1[C@H](NC(=O)/C(=N\OC(C)(C)C(=O)O)c2csc(N)n2)C(=O)N1C(=O)NS(=O)(=O)N1CCN(C(=O)c2cc(=O)c(O)c[nH]2)N(C)C1=O: 2.6 ×10⁴ /M/s

----------
# Kinact values compiled below
system: Pseudomonas aeruginosa; experiment: Inhibition of Pseudomonas aeruginosa PBP3 acylation activity by BOCILLIN FL-based assay
readout label: Kinact (×10⁴ /M/s)

• C[C@H]1[C@H](NC(=O)/C(=N\OC(C)(C)C(=O)O)c2csc(N)n2)C(=O)N1C(=O)NS(=O)(=O)Nc1cc(=O)c(O)c[nH]1 = 1.3
• C[C@H]1[C@H](NC(=O)/C(=N\OC(C)(C)C(=O)O)c2csc(N)n2)C(=O)N1C(=O)NS(=O)(=O)N1C[C@@H](NCc2cc(=O)c(O)c[nH]2)CC1=O = 5.7
• C[C@H]1[C@H](NC(=O)/C(=N\OC(C)(C)C(=O)O)c2csc(N)n2)C(=O)N1C(=O)NS(=O)(=O)N1C[C@@H](NC(=O)CNC(=O)c2cc(=O)c(O)c[nH]2)CC1=O = 2.4
• C[C@H]1[C@H](NC(=O)/C(=N\OC(C)(C)C(=O)O)c2csc(N)n2)C(=O)N1C(=O)NS(=O)(=O)N1CC[C@H](NC(=O)c2cc(=O)c(O)c[nH]2)C1 = 4.6
• C[C@H]1[C@H](NC(=O)/C(=N\OC(C)(C)C(=O)O)c2csc(N)n2)C(=O)N1C(=O)NS(=O)(=O)N1C[C@@H](NC(=O)[C@H](CCS(C)(=O)=O)NC(=O)c2cc(=O)c(O)c[nH]2)CC1=O = 1.8
• C[C@H]1[C@H](NC(=O)/C(=N\OC(C)(C)C(=O)O)c2csc(N)n2)C(=O)N1C(=O)NS(=O)(=O)NCc1cc(=O)c(O)c[nH]1 = 2.5
• C[C@H]1[C@H](NC(=O)/C(=N\OC(C)(C)C(=O)O)c2csc(N)n2)C(=O)N1C(=O)NS(=O)(=O)N1C[C@@H](NC(=O)NCc2cc(=O)c(O)cn2O)CC1=O = 5.9

----------
# fraction unbound at 16 h, 10 µM values compiled below
assay: Percentage unbound in human plasma at 10 uM after 16 hrs by LC-MS/MS analysis
readout label: fraction unbound at 16 h, 10 µM

- C[C@H]1[C@H](NC(=O)/C(=N\OC(C)(C)C(=O)O)c2csc(N)n2)C(=O)N1C(=O)NS(=O)(=O)N1C[C@@H](n2cc(-c3cc(=O)c(O)c[nH]3)nn2)CC1=O: 0.31
- C[C@H]1[C@H](NC(=O)/C(=N\OC(C)(C)C(=O)O)c2csc(N)n2)C(=O)N1C(=O)NS(=O)(=O)N1C[C@@H](N(C)C(=O)NCc2cc(=O)c(O)cn2O)CC1=O: 0.27
- C[C@H]1[C@H](NC(=O)/C(=N\OC(C)(C)C(=O)O)c2csc(N)n2)C(=O)N1C(=O)NS(=O)(=O)N1C[C@@H](NC(=O)CNC(=O)c2cc(=O)c(O)cn2O)CC1=O: 0.45

----------
assay: Percentage unbound in human plasma at 10 uM after 16 hrs by LC-MS/MS analysis
readout label: fraction unbound at 16 h, 10 µM

* CC(C)(O/N=C(\C(=O)N[C@@H]1C(=O)N(C(=O)NS(=O)(=O)N2C[C@@H](NC(=O)NCc3cc(=O)c(O)cn3O)CC2=O)C1(C)C)c1csc(N)n1)C(=O)O | 0.23
* C[C@H]1[C@H](NC(=O)/C(=N\OC(C)(C)C(=O)O)c2csc(N)n2)C(=O)N1C(=O)NS(=O)(=O)N1C[C@@H](NC(=O)NCc2cc(=O)c(O)cn2O)CC1=O | 0.26
* CC(C)(O/N=C(\C(=O)NC1CN(C(=O)NS(=O)(=O)N2CCN(NC(=O)c3cc(=O)c(O)c[nH]3)C2=O)C1=O)c1csc(N)n1)C(=O)O (stereo not given) | 0.29
* C[C@H]1[C@H](NC(=O)/C(=N\OC(C)(C)C(=O)O)c2csc(N)n2)C(=O)N1C(=O)NS(=O)(=O)N1C[C@H](NC(=O)c2cc(=O)c(O)c[nH]2)CC1=O | 0.25
* C[C@H]1[C@H](NC(=O)/C(=N\OC(C)(C)C(=O)O)c2csc(N)n2)C(=O)N1C(=O)NS(=O)(=O)N1C[C@@H](NC(=O)[C@H](CC(=O)O)NC(=O)c2cc(=O)c(O)c[nH]2)CC1=O | 0.14

----------
experiment: Percentage unbound in human plasma at 10 uM after 16 hrs by LC-MS/MS analysis
readout label: fraction unbound at 16 h, 10 µM

- C[C@H]1[C@H](NC(=O)/C(=N\OC(C)(C)C(=O)O)c2csc(N)n2)C(=O)N1C(=O)NS(=O)(=O)Nc1cc(=O)c(O)c[nH]1: 0.23
- C[C@H]1[C@H](NC(=O)/C(=N\OC(C)(C)C(=O)O)c2csc(N)n2)C(=O)N1C(=O)NS(=O)(=O)N1CCN(C(=O)c2cc(=O)c(O)c[nH]2)N(C)C1=O: 0.14
- C[C@H]1[C@H](NC(=O)/C(=N\OC(C)(C)C(=O)O)c2csc(N)n2)C(=O)N1C(=O)NS(=O)(=O)N1C[C@@H](NC(=O)[C@H](CCS(C)(=O)=O)NC(=O)c2cc(=O)c(O)c[nH]2)CC1=O: 0.21
- C[C@H]1[C@H](NC(=O)/C(=N\OC(C)(C)C(=O)O)c2csc(N)n2)C(=O)N1C(=O)NS(=O)(=O)N1C[C@@H](NC(=O)c2cc(=O)c(O)c[nH]2)CC1=O: 0.24
- C[C@H]1[C@H](NC(=O)/C(=N\OC(C)(C)C(=O)O)c2csc(N)n2)C(=O)N1C(=O)NS(=O)(=O)N1C[C@@H](NC(=O)NCc2cc(=O)c(O)c[nH]2)CC1=O: 0.26
- C[C@H]1[C@H](NC(=O)/C(=N\OC(C)(C)C(=O)O)c2csc(N)n2)C(=O)N1C(=O)NS(=O)(=O)N1C[C@@H](NC(=O)[C@H](CC(=O)O)NC(=O)c2cc(=O)c(O)cn2O)CC1=O: 0.43
- C[C@H]1[C@H](NC(=O)/C(=N\OC(C)(C)C(=O)O)c2csc(N)n2)C(=O)N1C(=O)NS(=O)(=O)N1C[C@@H](NCc2cc(=O)c(O)c[nH]2)CC1=O: 0.4
- C[C@H]1[C@H](NC(=O)/C(=N\OC(C)(C)C(=O)O)c2csc(N)n2)C(=O)N1C(=O)NS(=O)(=O)N1CCN(C(=O)c2cc(=O)c(O)c[nH]2)CC1: 0.26
- C[C@H]1[C@H](NC(=O)/C(=N\OC(C)(C)C(=O)O)c2csc(N)n2)C(=O)N1C(=O)NS(=O)(=O)N1CC[C@H](NC(=O)c2cc(=O)c(O)c[nH]2)C1: 0.33
- C[C@H]1[C@H](NC(=O)/C(=N\OC(C)(C)C(=O)O)c2csc(N)n2)C(=O)N1C(=O)NS(=O)(=O)N1C[C@@H](NC(=O)[C@@H]2CCCN2C(=O)c2cc(=O)c(O)c[nH]2)CC1=O: 0.28
- C[C@H]1[C@H](NC(=O)/C(=N\OC(C)(C)C(=O)O)c2csc(N)n2)C(=O)N1C(=O)NS(=O)(=O)N1C[C@@H](NC(=O)N(C)Cc2cc(=O)c(O)cn2O)CC1=O: 0.26
